# Test system: Salmonella enterica T-2a – tet(X4)
# ASSAY_TEXT: microbe, parasite or virus in culture
# Assay type: cell-based
# MEASUREMENT_SETUP: Salmonella enterica, read-out: Tet(X) Inhibitor MIC
QUANTITY_NAME: MIC (mg/L)

compound="Cc1c2c(c(O)c3c(O)cccc13)C(=O)[C@]1(O)C(=O)C(C(N)=O)=C(O)[C@@H](N(C)C)[C@@H]1C2 [Anhydrotetracycline]" experimental_system="Salmonella enterica T-2a – tet(X4)" result_operator== meas_value=32
compound=CN1CCN(CCCN2c3ccccc3Sc3ccc(C(F)(F)F)cc32)CC1 experimental_system="Salmonella enterica T-2a – tet(X4)" result_operator=> meas_value=128
compound=[H]/N=C(/NCCCCC)N/N=C/c1c[nH]c2ccc(OC)cc12 experimental_system="Salmonella enterica T-2a – tet(X4)" result_operator== meas_value=32
compound=CN1CCN(CCCN2c3ccccc3Sc3ccc(Cl)cc32)CC1 experimental_system="Salmonella enterica T-2a – tet(X4)" result_operator=> meas_value=128
compound=O=C(c1ccc(OCCN2CCCCC2)cc1)c1c(-c2ccc(O)cc2)sc2cc(O)ccc12 experimental_system="Salmonella enterica T-2a – tet(X4)" result_operator=> meas_value=128

---

Combination (Antibiotic/Inhibitor) MICs: inhibitor reference
# Test system: Escherichia coli T-24a – tet(X4)
# ASSAY_TEXT: microbe, parasite or virus in culture
# Type: cell-based
# MEASUREMENT_SETUP: inhibitor in combination with tigecycline, lowest FICI
QUANTITY_NAME: Combination (Antibiotic/Inhibitor) MICs: inhibitor (µg/mL)

molecule=O=C(c1ccc(OCCN2CCCCC2)cc1)c1c(-c2ccc(O)cc2)sc2cc(O)ccc12 meas_value=128
molecule="Cc1c2c(c(O)c3c(O)cccc13)C(=O)[C@]1(O)C(=O)C(C(N)=O)=C(O)[C@@H](N(C)C)[C@@H]1C2 [Anhydrotetracycline]" meas_value=32
molecule=CN1CCN(CCCN2c3ccccc3Sc3ccc(C(F)(F)F)cc32)CC1 meas_value=32
molecule=CN1CCN(CCCN2c3ccccc3Sc3ccc(Cl)cc32)CC1 meas_value=32
molecule=[H]/N=C(/NCCCCC)N/N=C/c1c[nH]c2ccc(OC)cc12 meas_value=8

---

# EXPERIMENTAL_SYSTEM: Tet(X4) (Escherichia coli, UniProt A0A3T0V9Y5)
# ASSAY_TEXT: FP competitive displacement of probe 6
# Assay type: binding
# MEASUREMENT_SETUP: IC50app, FP assay, 25 nM 6, 40 nM Tet(X4), 5 mM MgCl2, 1 μM FAD, 100 mM Tris pH 7.0, 0.01% Triton X-100
QUANTITY_NAME: IC50

structure_as_smiles=CC1=CC(=O)c2c(O)cccc2C1=O experimental_system="Tet(X4) (Escherichia coli, UniProt A0A3T0V9Y5)" meas_value="> 100 µM"
structure_as_smiles=COC1=CC(=O)c2ccccc2C1=O experimental_system="Tet(X4) (Escherichia coli, UniProt A0A3T0V9Y5)" meas_value="> 100 µM"
structure_as_smiles=Cc1cn([C@H]2C[C@H](N=[N+]=[N-])[C@@H](CO)O2)c(=O)[nH]c1=O experimental_system="Tet(X4) (Escherichia coli, UniProt A0A3T0V9Y5)" meas_value="> 100 µM"

---

# EXPERIMENTAL_SYSTEM: Tet(X4) (Escherichia coli, UniProt A0A3T0V9Y5)
# ASSAY_TEXT: biochemical
# MEASUREMENT_SETUP: 20 μM tigecycline, 50 nM Tet(X4), 100 μM NADPH, 5 mM MgCl2, 1 μM FAD, 100 mM TAPS pH 8.5; read-out: IC50, UPLC assay
QUANTITY_NAME: log10 IC50 (log10 of the value in µM)

compound="Cc1c2c(c(O)c3c(O)cccc13)C(=O)[C@]1(O)C(=O)C(C(N)=O)=C(O)[C@@H](N(C)C)[C@@H]1C2 [Anhydrotetracycline]" quantity_name="log10 IC50" meas_value=0.41
compound=c1ccc2c(c1)Nc1ccccc1S2 quantity_name="log10 IC50" meas_value=2.11
compound=CN(C)CCCN1c2ccccc2Sc2ccc(Cl)cc21 quantity_name="log10 IC50" meas_value=2.04
compound=O=C(c1ccc(OCCN2CCCCC2)cc1)c1c(-c2ccc(O)cc2)sc2cc(O)ccc12 quantity_name="log10 IC50" meas_value=0.92
compound="COc1cc(C)c2c(Oc3cccc(C(F)(F)F)c3)c(OC)cc(NC(C)CCCN)c2n1 (centres unmarked)" quantity_name="log10 IC50" meas_value=1.88

---

# EXPERIMENTAL_SYSTEM: UniProt:A0A3T0V9Y5
# ASSAY_TEXT: biochemical
# MEASUREMENT_SETUP: 20 μM tigecycline, 50 nM Tet(X4), 100 μM NADPH, 5 mM MgCl2, 1 μM FAD, 100 mM TAPS pH 8.5; read-out: IC50, UPLC assay
QUANTITY_NAME: IC50

structure_as_smiles=CC(=O)c1ccc2c(c1)N(CCCN1CCN(CCO)CC1)c1ccccc1S2 quantity_name=IC50 meas_value="> 100 µM"
structure_as_smiles=COc1ccc2c(c1)N(C[C@H](C)CN(C)C)c1ccccc1S2 quantity_name=IC50 meas_value="> 100 µM"
structure_as_smiles=CCCCC1C(=O)N(c2ccccc2)N(c2ccccc2)C1=O quantity_name=IC50 meas_value="> 100 µM"
